- targetDesc: PIKFYVE (Homo sapiens)
- assayNotes: Cell-based Pikfyve inhibition activity assay (EEA1 staining, mean vesicle size in BJ fibroblast cells)
- experimentalConditions: Table 4, 4 hours treatment, 3 μM Apilimod = 100% inhibition
pEC50: −log10 of the molar value.
reportedEndpoint: pEC50

molecule=Cc1cccc(-c2ccn(-c3cc(N4CCOCC4)nc(OC4COC4)n3)n2)c1 valueobserved="6.30 to 7.00"
molecule="CCO[C@@H](CO)c1nc(N2CCOCC2)cc(-n2ccc(-c3cccc(C)c3)n2)n1 (single isomer, unassigned)" valueobserved="6.30 to 7.00"
molecule="CO[C@@H](CO)c1nc(N2CCOCC2)cc(-n2ccc(-c3csc4ccccc34)n2)n1 (single isomer, unassigned)" valueobserved="6.30 to 7.00"
molecule="Cc1cccc(-c2ccn(-c3cc(N4CCOCC4)nc(C(O)CC#N)n3)n2)c1 (stereo not shown)" valueobserved="7.00 to 7.70"

====

- targetDesc: PIKFYVE (Homo sapiens, UniProt Q9Y2I7)
- Sequence (Q9Y2I7 whole entry): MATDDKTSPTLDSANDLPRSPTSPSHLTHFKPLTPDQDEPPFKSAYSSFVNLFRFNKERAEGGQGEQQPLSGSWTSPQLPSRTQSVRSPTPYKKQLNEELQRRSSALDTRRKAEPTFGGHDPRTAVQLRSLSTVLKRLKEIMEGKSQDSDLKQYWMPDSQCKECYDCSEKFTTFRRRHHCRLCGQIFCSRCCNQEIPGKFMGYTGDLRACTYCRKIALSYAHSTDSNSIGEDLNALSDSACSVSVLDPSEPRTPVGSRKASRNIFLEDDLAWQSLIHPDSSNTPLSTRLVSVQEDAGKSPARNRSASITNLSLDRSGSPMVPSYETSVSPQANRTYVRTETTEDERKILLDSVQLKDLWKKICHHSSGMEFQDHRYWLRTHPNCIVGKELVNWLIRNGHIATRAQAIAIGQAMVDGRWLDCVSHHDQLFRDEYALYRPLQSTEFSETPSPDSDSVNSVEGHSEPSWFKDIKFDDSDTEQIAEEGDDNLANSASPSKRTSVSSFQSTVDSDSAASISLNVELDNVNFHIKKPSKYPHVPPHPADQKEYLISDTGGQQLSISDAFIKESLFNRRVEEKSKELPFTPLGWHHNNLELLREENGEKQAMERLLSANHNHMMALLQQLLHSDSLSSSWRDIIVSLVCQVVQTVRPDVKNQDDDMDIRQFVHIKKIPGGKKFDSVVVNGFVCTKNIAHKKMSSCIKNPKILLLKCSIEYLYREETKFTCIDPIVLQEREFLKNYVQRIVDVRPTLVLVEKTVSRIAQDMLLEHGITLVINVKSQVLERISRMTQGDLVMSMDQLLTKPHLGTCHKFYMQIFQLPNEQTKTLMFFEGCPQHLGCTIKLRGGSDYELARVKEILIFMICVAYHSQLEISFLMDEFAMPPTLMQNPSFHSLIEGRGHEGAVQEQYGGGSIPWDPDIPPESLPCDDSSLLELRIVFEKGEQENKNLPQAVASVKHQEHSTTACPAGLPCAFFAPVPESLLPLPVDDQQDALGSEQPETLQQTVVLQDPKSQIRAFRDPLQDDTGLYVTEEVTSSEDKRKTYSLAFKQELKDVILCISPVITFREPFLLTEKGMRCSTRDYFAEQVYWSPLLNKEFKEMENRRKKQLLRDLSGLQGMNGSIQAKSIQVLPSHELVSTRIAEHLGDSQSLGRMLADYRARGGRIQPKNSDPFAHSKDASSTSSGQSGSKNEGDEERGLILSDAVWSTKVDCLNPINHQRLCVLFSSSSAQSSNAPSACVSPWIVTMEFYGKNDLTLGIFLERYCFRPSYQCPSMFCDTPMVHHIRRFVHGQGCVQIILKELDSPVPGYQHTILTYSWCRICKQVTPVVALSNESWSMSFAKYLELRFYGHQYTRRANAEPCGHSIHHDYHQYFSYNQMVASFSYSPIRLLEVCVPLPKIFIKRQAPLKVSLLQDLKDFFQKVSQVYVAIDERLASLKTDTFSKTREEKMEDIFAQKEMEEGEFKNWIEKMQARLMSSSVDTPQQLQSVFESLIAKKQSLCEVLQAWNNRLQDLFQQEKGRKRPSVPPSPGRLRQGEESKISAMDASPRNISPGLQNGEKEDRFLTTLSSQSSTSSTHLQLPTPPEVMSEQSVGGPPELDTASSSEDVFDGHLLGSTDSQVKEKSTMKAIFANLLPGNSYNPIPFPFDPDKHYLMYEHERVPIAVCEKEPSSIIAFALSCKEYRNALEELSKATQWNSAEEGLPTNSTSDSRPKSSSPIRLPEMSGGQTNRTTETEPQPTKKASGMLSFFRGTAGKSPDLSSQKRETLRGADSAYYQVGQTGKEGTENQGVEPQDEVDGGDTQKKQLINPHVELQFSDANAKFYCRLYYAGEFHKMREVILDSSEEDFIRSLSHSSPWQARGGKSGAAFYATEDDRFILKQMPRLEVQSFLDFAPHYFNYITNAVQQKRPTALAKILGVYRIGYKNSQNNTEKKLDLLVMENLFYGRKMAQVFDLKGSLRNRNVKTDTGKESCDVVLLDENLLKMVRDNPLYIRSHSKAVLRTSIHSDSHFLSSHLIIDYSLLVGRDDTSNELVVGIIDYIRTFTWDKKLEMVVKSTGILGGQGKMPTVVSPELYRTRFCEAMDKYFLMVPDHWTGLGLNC
- assayNotes: PIKFYVE assay (luciferase ADP-Glo kinase assay, Promega)
- Format: biochemical
- experimentalConditions: Table 3
reportedEndpoint: IC50

molecule=CO[C@H](CO)c1nc(N2CCOCC2)cc(-n2ccc(-c3cnc4ccccn34)n2)n1 valueobserved="100 to 5000 nM"
molecule="CO[C@@H](CO)c1nc(N2CCOCC2)cc(-n2ccc(-c3c[nH]c4ccccc34)n2)n1 (single isomer, unassigned)" valueobserved="< 3 nM"
molecule=Cc1cccc(-c2ccn(-c3cc(N4CCOCC4)nc(OCC(=O)c4ccccc4)n3)n2)c1 valueobserved="10 to 100 nM"
molecule=COc1cccc(-c2ccn(-c3cc(N4CCOCC4)nc([C@@H](CO)OC)n3)n2)c1 valueobserved="10 to 100 nM"
molecule=Cc1cccc(-c2ccn(-c3cc(N4CCOCC4)nc(OCC4(C)COC4)n3)n2)c1 valueobserved="< 3 nM"
molecule=Cc1cccc(-c2ccn(-c3cc(N4CCOCC4)nc(OCCc4cn[nH]c4)n3)n2)c1 valueobserved="< 3 nM"
molecule=Cc1cccc(-c2ccn(-c3cc(N4CCOCC4)nc(OCCN)n3)n2)c1 valueobserved="10 to 100 nM"
molecule=CN(C)Cc1ccc2nn(-c3cc(N4CCOCC4)nc(OCCc4cnn(C)c4)n3)cc2c1 valueobserved="10 to 100 nM"

====

Entries and their measured pEC50 follow.
- targetDesc: PIKFYVE (Homo sapiens)
- assayNotes: Cell-based Pikfyve inhibition activity assay (EEA1 staining, mean vesicle size in BJ fibroblast cells)
- experimentalConditions: Table 4, 4 hours treatment, 3 μM Apilimod = 100% inhibition
- Description: BJ fibroblast cells were obtained from American Type Cell Culture (ATCC, CRL-2522). […] Images were acquired with 20× objective (ImageXpress MicroConfocal, Molecular Devices) creating z-series of 5 planes (5 steps, […]), 16 tiles per well. Images were then analyzed using a custom CellProfiler protocol to obtain mean vesicle size. […]
pEC50: −log10 of the molar value.
reportedEndpoint: pEC50

compound="COC(c1ccccc1)c1nc(N2CCOCC2)cc(-n2ccc(-c3ccccc3)n2)n1 (stereo not shown)" valueobserved="5.30 to 6.30"
compound=Cn1cc(CCOc2nc(N3CCOCC3)cc(-n3ccc(-c4ccncc4)n3)n2)cn1 valueobserved="< 5.30"
compound=Cc1cccc(-c2ccn(-c3cc(N4CCOCC4)nc(OCCc4c[nH]cn4)n3)n2)c1 valueobserved="7.00 to 7.70"
compound=COc1nc(N2CCOCC2)cc(-n2nc(-c3cccc(C)c3)cc2CN2CCOCC2)n1 valueobserved="< 5.30"
compound=Cn1cc(CCOc2nc(N3CCOCC3)cc(-n3ccc(C(=O)Nc4ccccc4)n3)n2)cn1 valueobserved="7.00 to 7.70"
compound=Cc1ccccc1-c1ccn(-c2cc(N3CCOCC3)nc(OCCc3cnn(C)c3)n2)n1 valueobserved="6.30 to 7.00"
compound="COC(Cc1ccnn1C)c1nc(N2CCOCC2)cc(-n2ccc(-c3ccccc3)n2)n1 (stereo not shown)" valueobserved="6.30 to 7.00"
compound=Cc1cccc(-c2cc(CN3CCOCC3)n(-c3cc(N4CCOCC4)nc(OCCc4cnn(C)c4)n3)n2)c1 valueobserved="7.00 to 7.70"
compound=Cc1cccc(-c2ccn(-c3cc(N4CCOCC4)nc(OCc4cccnn4)n3)n2)c1 valueobserved="7.00 to 7.70"
compound="Cn1cc(C(O)C#Cc2nc(N3CCOCC3)cc(-n3ccc(-c4ccccc4)n3)n2)cn1 (stereo not shown)" valueobserved="7.00 to 7.70"
compound="Cc1cc(-c2c[nH]c3ccccc23)nn1-c1cc(N2CCOCC2)nc(C2COCCO2)n1 (single isomer, unassigned) [Compound 344]" valueobserved="> 7.70"
compound=Cn1cc(CCOc2nc(N3CCOCC3)cc(-n3ccc(-c4cn(C)c5ccccc45)n3)n2)cn1 valueobserved="< 5.30"
compound=Cc1cccc(-c2ccn(-c3cc(N4CCOCC4)nc(OCCc4cn[nH]c4)n3)n2)c1 valueobserved="> 7.70"
compound="COC[C@@H](O)c1nc(N2CCOCC2)cc(-n2ccc(-c3cccc(C)c3)n2)n1 (single isomer, unassigned)" valueobserved="6.30 to 7.00"
compound=Cc1cccc(-c2ccn(-c3cc(N4CCOCC4)n4nc(C)cc4n3)n2)c1 valueobserved="5.30 to 6.30"
compound=CN(C)Cc1cc(-c2ccccc2)nn1-c1cc(N2CCOCC2)nc(OCCc2cnn(C)c2)n1 valueobserved="6.30 to 7.00"
compound="Cc1cccc(-c2ccn(-c3cc(N4CCOCC4)nc(OC[C@H](O)c4ccccc4)n3)n2)c1 (single isomer, unassigned)" valueobserved="7.00 to 7.70"
compound=Cc1cccc(-c2ccn(-c3cc(N4CCOCC4)nc([C@H]4C[C@H](O)CO4)n3)n2)c1 valueobserved="5.30 to 6.30"
compound="Cc1cccc(-c2cc([C@@H](C)O)n(-c3cc(N4CCOCC4)nc(OCCc4cnn(C)c4)n3)n2)c1 (single isomer, unassigned)" valueobserved="> 7.70"
